test_details: Plasma pharmacokinetics of Compound I after single intraperitoneal dose in Swiss-Webster mice (Example 1)
Format: in vivo
condition_summary: female, CFW (Swiss-Webster), mouse, ip; Swiss-Webster mice, plasma, 50 mg/kg intraperitoneal
measured_parameter: Cmax (µg/mL)

[
  {
    "test_smiles": "O=C(O)C[C@@H]1CC[C@H](NC(=O)Cc2cccs2)B(O)O1",
    "measured_parameter": "Cmax",
    "readout_number": 67.1
  }
]

* * *

test_details: Single-dose pharmacokinetics of Compound I, intravenous 30-minute infusion in Sprague-Dawley rats (Example 5)
Type: in vivo
condition_summary: Sprague-Dawley, in vivo, Rat, 20 mg/kg IV

[
  {
    "molecule": "O=C(O)C[C@@H]1CC[C@H](NC(=O)Cc2cccs2)B(O)O1 [Compound I]",
    "Cmax": "19800 ng/mL"
  }
]

* * *

test_details: Plasma pharmacokinetics of Compound I after single intraperitoneal dose in Swiss-Webster mice (Example 1)
Assay type: in vivo
condition_summary: Swiss-Webster mice, plasma, 5 mg/kg intraperitoneal
measured_parameter: AUC (ng·h/mL)

[
  {
    "compound": "O=C(O)C[C@@H]1CC[C@H](NC(=O)Cc2cccs2)B(O)O1 [Compound I]",
    "readout_number": 3100
  }
]

* * *

test_details: Single-dose pharmacokinetics of Compound I, intravenous 30-minute infusion in Cynomologus monkeys (Example 5)
Type: in vivo
condition_summary: cynomolgus, in vivo, Monkey, 6 mg/kg IV
measured_parameter: half-life (min)

[
  {
    "test_smiles": "O=C(O)C[C@@H]1CC[C@H](NC(=O)Cc2cccs2)B(O)O1",
    "measured_parameter": "half-life",
    "readout_number": 33
  }
]

* * *

test_details: Plasma pharmacokinetics of Compound I after single intraperitoneal dose in Swiss-Webster mice (Example 1)
Type: in vivo
condition_summary: female, CFW (Swiss-Webster), mouse, plasma, ip, 50 mg/kg, mouse plasma, 50 mg/kg intraperitoneal, samples m.p. 2.x = 2nd time point (0.16 h), 5x dil., individual animals; read-out: Calc. Conc. (plasma concentration)
measured_parameter: concentration at 0.16 h (µg/mL)

[
  {
    "compound": "O=C(O)C[C@@H]1CC[C@H](NC(=O)Cc2cccs2)B(O)O1 [Compound I]",
    "measured_parameter": "concentration at 0.16 h",
    "measurement_units": "µg/mL",
    "readout_number": 58.9
  }
]

* * *

test_details: Single-dose pharmacokinetics of Compound I, intraperitoneal administration to Swiss-Webster mice (Example 5)
Format: in vivo
condition_summary: plasma, Mouse, 5 mg/kg IP

[
  {
    "compound": "O=C(O)C[C@@H]1CC[C@H](NC(=O)Cc2cccs2)B(O)O1 [Compound I]",
    "half-life, min": 9.6
  }
]

* * *

test_details: Single-dose pharmacokinetics of Compound I, intraperitoneal administration to Swiss-Webster mice (Example 5)
Type: in vivo
condition_summary: plasma, Mouse, 50 mg/kg IP

[
  {
    "molecule": "O=C(O)C[C@@H]1CC[C@H](NC(=O)Cc2cccs2)B(O)O1 [Compound I]",
    "Cmax": "67.1 µg/mL"
  }
]

* * *

test_details: Single-dose pharmacokinetics of Compound I, intraperitoneal administration to Swiss-Webster mice (Example 5)
Format: in vivo
condition_summary: plasma, Mouse, 15 mg/kg IP
measured_parameter: Cmax (ng/mL)

[
  {
    "test_smiles": "O=C(O)C[C@@H]1CC[C@H](NC(=O)Cc2cccs2)B(O)O1",
    "measured_parameter": "Cmax",
    "readout_number": 19500
  }
]
